target: Muscarinic acetylcholine receptor M1 (Homo sapiens) (UniProt P11229); assay: CHRM1 blockers of acetylcholine calcium response – CHO-K1 cells, Fluo-8 calcium fluorescence, 1536-well, primary screen (AID 588852); details: CHO-K1 hM1, Fluo-8 calcium fluorescence, ACh EC80 antagonist; at 3 µM; stronger effect = higher value;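 also: peak over basal fluorescence ratio during 140 s after agonist addition; 0% = ACh EC80 plus DMSO and 100% = DMSO alone without agonist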
Sequence (P11229 whole entry, looked up): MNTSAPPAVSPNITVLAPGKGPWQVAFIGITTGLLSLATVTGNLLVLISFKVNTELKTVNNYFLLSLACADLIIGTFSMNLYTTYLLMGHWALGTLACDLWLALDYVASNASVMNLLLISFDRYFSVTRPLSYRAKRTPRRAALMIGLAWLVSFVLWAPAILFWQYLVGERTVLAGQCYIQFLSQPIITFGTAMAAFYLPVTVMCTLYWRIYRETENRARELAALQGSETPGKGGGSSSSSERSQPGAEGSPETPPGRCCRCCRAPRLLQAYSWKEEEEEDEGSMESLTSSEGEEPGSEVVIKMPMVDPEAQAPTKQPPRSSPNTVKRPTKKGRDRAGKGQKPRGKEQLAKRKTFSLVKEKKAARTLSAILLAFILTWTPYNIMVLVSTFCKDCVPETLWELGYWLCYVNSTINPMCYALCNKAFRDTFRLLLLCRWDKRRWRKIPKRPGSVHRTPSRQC
Out of some 360,000 compounds screened, about 4,600 (1.3%) were called active. The sample holds actives, similar compounds and a random draw of the others, so the mix is not that of the screen.
testReadout: inhibition (%)

> print(dat)
                                    compound  testreadout  number
 1      O=C(CCCOc1ccc(Cl)cc1Cl)NNC(=O)C1CCC1   inhibition   -17.9
 2   Cc1ccc(Cc2c(-c3ccco3)nc3ccc(Cl)cn23)cc1   inhibition   -22.8
 3  CC(CCc1ccc(O)cc1)NCc1ccc(Cl)cc1Cl (stereo unspecified)   inhibition    30.2
 4        NC(=O)C1(N2CCCC2)CCN(Cc2ccccc2)CC1   inhibition    2.73
 5                Cc1cc(OCCN2CCCC2)ccc1C(C)C   inhibition   -3.45
 6  COc1cccc(CN(C)C(=O)CC[C@H]2O[C@@H](n3cnc4c(NC(=O)c5ccccc5)ncnc43)[C@H](O)[C@@H]2O)c1   inhibition   -19.1
 7  CC(CCc1ccccc1)NC(=O)c1cnc(Cl)c(Cl)c1 (stereo unspecified)   inhibition    2.23
 8              Cc1cc(OCCN2CCCC2)cc(C(C)C)c1   inhibition    82.3
 9         CN1CCC(OC(=O)COc2ccc(Cl)cc2Cl)CC1   inhibition    51.8
10                 O=S1(=O)CCN(Cc2ccccc2)CC1   inhibition    -8.4
11  Cc1ccccc1OCC(=O)Nc1ccc(N2CCN(C(=O)C(C)C)CC2)c(Cl)c1   inhibition    34.5

###

molecular target: Muscarinic acetylcholine receptor M1 (Homo sapiens); assay: CHRM1 blockers of acetylcholine calcium response – CHO-K1 cells, Fluo-8 calcium fluorescence, 1536-well, primary screen (AID 588852); conditions: CHO-K1 hM1, Fluo-8 calcium fluorescence, ACh EC80 antagonist; at 3 µM; stronger effect = higher value;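 also: peak over basal fluorescence ratio during 140 s after agonist addition; 0% = ACh EC80 plus DMSO and 100% = DMSO alone without agonist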
Among all 360,000 compounds or so, about 4,600 (1.3%) were called active. Many of the other results were omitted from the sample, so actives are more common in it than they were.
testReadout: inhibition (%)

> print(dat)
                                   molecule  number
1  CCCCN1CC(N2CCN(Cc3cccc(C)c3)CC2)CS1(=O)=O (stereo not given)    8.04
2  CCc1ccccc1OCC(=O)Nc1ccc(C)c(S(=O)(=O)N2CCCCCC2)c1    6.49
3  COc1ccc(NC(=O)C(CC(C)C)NC(=O)C2CCC(C)CC2)cc1 (stereo not given)    0.68
4  CCN1CCC2(CC1)N=C(c1ccc(F)cc1)C(=S)N2C(=O)c1ccc(C)cc1    90.6
5  COc1ccccc1CC1(C)C(=O)Nc2ccc(OC(F)(F)F)cc21 (stereo not given)   -12.6

###

target: Muscarinic acetylcholine receptor M1 (Homo sapiens) (UniProt P11229); experiment: CHRM1 blockers of acetylcholine calcium response – CHO-K1 cells, Fluo-8 calcium fluorescence, 1536-well, primary screen (AID 588852); conditions: CHO-K1 hM1, Fluo-8 calcium fluorescence, ACh EC80 antagonist; at 3 µM; stronger effect = higher value;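 also: peak over basal fluorescence ratio during 140 s after agonist addition; 0% = ACh EC80 plus DMSO and 100% = DMSO alone without agonist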
Among all 360,000 compounds or so, about 4,600 (1.3%) were called active. The entries come from a sample that favours actives as a whole.
testReadout: inhibition (%)

> print(dat)
                                    compound  unittag  number
 1                Fc1ccc(CNCc2ccc(Br)cc2)cc1        %   -0.53
 2  CC(C)(C)NC(=O)COc1ccc(CNc2ccc3[nH]c(=O)[nH]c3c2)cc1        %   -1.62
 3  C[C@H]1CN([C@@H](C)CO)S(=O)(=O)c2ccc(Br)cc2O[C@H]1CN(C)C(=O)c1cnccn1        %   -4.86
 4  COC(=O)c1ccccc1Sc1c(/C=N/OCc2ccc(Cl)cc2)c(C(F)(F)F)nn1C        %    6.15
 5  CC(C)C1Nc2c(C(=O)O)cccc2C(Nc2ccccc2C(=O)O)C1(C)C (stereo unspecified)        %    2.52
 6  Cn1c(CCN2CCN(c3ccccn3)CC2)nc2cc(NS(=O)(=O)c3ccc(F)cc3)ccc21        %    69.9
 7            COc1ccc(C)cc1NC(=S)Nc1ccccc1SC        %   -4.63
 8  C=C1C(=O)[C@]23C[C@H]1CCC2[C@@]1(C)C(C[C@@H]3O)[C@](C)(C(=O)O)CC[C@@H]1O (stereo partly specified)        %   -14.8
 9  O=C(NC(Cc1ccc(O)cc1)C(=O)O)/C(=C/c1ccccc1)NC(=O)c1ccccc1 (stereo unspecified)        %   -14.6
10  CCCCN(C)C(=O)c1ccc2c(c1)N(CC)C(=O)c1ccccc1S2(=O)=O        %    37.7
11  COc1ccc(CCNC(=O)COC(=O)c2ccc[nH]c2=O)cc1        %   -7.65
12  Nc1ncnc2c1ncn2[C@@H]1O[C@H](C(=O)NCC(F)(F)F)[C@@H](O)[C@H]1O        %   -26.1
13    COc1ccc(OC)c(Cc2cnc3nc(N)nc(N)c3c2C)c1        %   -0.49
14  CN(Cc1cnccn1)C(=O)c1cc(COc2cccc(C(F)(F)F)c2)on1        %   -11.2
15         CCC(=O)Nc1cc(C(F)(F)F)ccc1N1CCCC1        %    3.67
16  O=C(CN1CCCCC1)N1c2ccccc2Sc2ccc(C(F)(F)F)cc21        %    96.8
17  CC(C)(O)C#Cc1ccc(CNC[C@H]2O[C@@H](n3cnc4c(=O)[nH]c(N)nc43)[C@H](O)[C@@H]2O)s1        %    3.48
18  CCOc1ccc(Nc2nc(Cc3nnc(SCC(=O)NC4CCCC4)n3C)cs2)cc1        %   -22.9
19  COc1ccc(-c2cc(NC=O)c3ncc(-c4cc(OC)c(OC)c(OC)c4)n3c2)c(OC)c1        %    5.71
20  c1ccc2c(c1)OCC(CNc1ncnc3nc[nH]c13)O2 (stereo unspecified)        %     101
21          Clc1cccc(Cl)c1Cn1nnc(-c2cccs2)n1        %    -2.1
22  O=C(CN1CCCCCC1)N1c2ccccc2Sc2ccc(C(F)(F)F)cc21        %     102
23  CCN(CC)c1ccc(NC(=O)CN2CCN(c3ccccn3)CC2)cc1        %   -1.84
24       CC(C)c1ccc(NC(=O)Cn2ncc3ccccc32)cc1        %   -20.8
25  NC(=O)C1=C[C@@H](c2csc3ccccc23)C[C@@H](OCc2ccc(CO)cc2)O1        %   -1.54
26  CCOC(=O)N1CCN(Cc2nc3cc(NC(C)=O)ccc3n2C)CC1        %   -2.65
27  CC1(Cc2ccccc2C#N)C(=O)Nc2ccc(-c3ccc4[nH]ccc4c3)cc21 (stereo unspecified)        %    8.72
28  O=C(NCCN1CCOCC1)c1ccc2c(c1)N(Cc1cccc(Cl)c1)C(=O)c1ccccc1S2(=O)=O        %   -3.27
29  CCOC(=O)[C@H]1[C@H]2COc3ccc(C)cc3[C@@H]2N2C(=O)CN(Cc3ccc(F)cc3)C(=O)[C@@]12C        %    35.9
30  CCOC(=O)[C@H]1[C@H]2COc3ccccc3[C@@H]2N2C(=O)CN(Cc3ccccc3)C(=O)[C@@]12C        %    7.51
31  COc1ccccc1N1CCN(c2ncnc3sc(C)c(-c4ccccc4)c23)CC1        %   -8.38
32  CCOC(=O)[C@H]1[C@H]2COc3cc(OC)ccc3[C@@H]2N2C(=O)CN(Cc3ccc(Cl)cc3)C(=O)[C@@]12C        %    -8.3
33  O=C(CN1CCN(c2ccc(F)cc2)CC1)Nc1cccc(C(F)(F)F)c1        %   -30.1
34  O=C(CCc1ccc(S(=O)(=O)N2CCOCC2)cc1)OCC(=O)c1ccc(Br)cc1        %    9.26
35  COC(=O)c1ccc(NC(=O)CN(c2ccc(C)cc2)S(=O)(=O)c2c(C)n[nH]c2C)cc1        %   -8.36
36  O=C(CC(O)(C(F)(F)F)C(F)(F)F)Nc1ccc(Cl)c(Cl)c1        %    41.1
37  CC(NC(=O)Nc1ccccc1)c1ccccc1 (stereo unspecified)        %   -2.37
38  Cc1ccc(Sc2ccc(NC(=O)c3ccc(F)cc3)cc2C#N)cc1        %    9.62
39  COc1ccc(NC(=O)C2(C)Cc3c(-c4cccc(NC(C)=O)c4)ccnc3O2)cc1 (stereo unspecified)        %   -7.09
40  CC(=O)Nc1ccc(C(=O)CSc2nnc(Cc3ccccc3)o2)cc1        %   -12.2
41  CN(Cc1cccnc1)C(=O)c1cc(COc2ccc3ncccc3c2)on1        %      50

These entries and their values trace back to PubChem BioAssay AID588852.
